Provenance of the data: ChEMBL document CHEMBL1156946

# systemName: Bombesin receptor subtype-3 (Mus musculus, UniProt O54798)
# Sequence (O54798 whole entry): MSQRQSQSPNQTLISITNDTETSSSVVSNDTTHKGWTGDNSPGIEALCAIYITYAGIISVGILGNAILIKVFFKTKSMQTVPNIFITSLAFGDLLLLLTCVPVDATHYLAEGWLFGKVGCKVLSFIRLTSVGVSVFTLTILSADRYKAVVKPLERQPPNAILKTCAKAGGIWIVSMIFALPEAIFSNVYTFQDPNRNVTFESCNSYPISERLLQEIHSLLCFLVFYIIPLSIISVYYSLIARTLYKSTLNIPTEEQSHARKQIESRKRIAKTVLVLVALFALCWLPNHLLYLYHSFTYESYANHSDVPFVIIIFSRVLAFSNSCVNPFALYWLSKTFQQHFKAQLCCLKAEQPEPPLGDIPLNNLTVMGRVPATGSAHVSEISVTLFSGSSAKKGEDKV
# procedureSummary: Agonist activity at mouse BRS-3 expressed in HEK293 cells coexpressing AEQ over 10 mins by aequorin bioluminescence assay
pEC50: −log10 of the molar value.
endpoint: pEC50

In [3]: df
Out[3]:
                              chemicalstring                                systemname  recordednumber
 0  CCC(C)(C)Cc1cnc(CCc2ccc(-c3ccc(F)cn3)cc2)[nH]1  Bombesin receptor subtype-3 (Mus musculus, UniProt O54798)            7.80
 1  CCC(C)(C)Cc1cnc(CCc2ccc(N3CCCCC3)cc2)[nH]1  Bombesin receptor subtype-3 (Mus musculus, UniProt O54798)            7.55
 2  CCC(C)(C)Cc1cnc(CCc2ccc(-c3cnsc3)cc2)[nH]1  Bombesin receptor subtype-3 (Mus musculus, UniProt O54798)            8.16
 3  O=C(O)c1cc(F)c(F)cc1-c1ccc(CCc2nc(CC3CCCCC3)c[nH]2)cc1  Bombesin receptor subtype-3 (Mus musculus, UniProt O54798)            8.33
 4  CCC(C)(C)Cc1c[nH]c(CCc2ccc(-c3cccc(O)n3)cc2)n1  Bombesin receptor subtype-3 (Mus musculus, UniProt O54798)            7.96
 5  c1ccc(-c2ccc(CCc3nc(CC4CCCC4)c[nH]3)cc2)nc1  Bombesin receptor subtype-3 (Mus musculus, UniProt O54798)            7.66
 6  CCC(C)(C)Cc1c[nH]c(CCc2ccc(-c3cccc(C(=O)O)n3)cc2)n1  Bombesin receptor subtype-3 (Mus musculus, UniProt O54798)            6.52
 7  CCC(C)(C)Cc1c[nH]c(CCc2ccc(-c3cnccn3)cc2)n1  Bombesin receptor subtype-3 (Mus musculus, UniProt O54798)            7.96
 8  CCC(C)(C)Cc1cnc(CCc2ccc(-n3ccnn3)cc2)[nH]1  Bombesin receptor subtype-3 (Mus musculus, UniProt O54798)            7.24
 9  CCC(C)(C)Cc1c[nH]c(CCc2ccc(-n3ncnn3)cc2)n1  Bombesin receptor subtype-3 (Mus musculus, UniProt O54798)            7.60
10  CCC(C)(C)Cc1c[nH]c(CCc2ccc(-n3cccn3)cc2)n1  Bombesin receptor subtype-3 (Mus musculus, UniProt O54798)            8.05

---

# procedureSummary: Ratio of drug level in rat brain to plasma at 1 mg/kg, iv after 1 hr
# Format: ADME, organism-based
# Parameters: dose 1 mg/kg, route intravenous
endpoint: Kp at 1 h

                             chemicalstring  recordednumber
0  CCC(C)(C)Cc1c[nH]c(CCc2ccc(-n3cccn3)cc2)n1            0.67
1  CCC(C)(C)Cc1cnc(CCc2ccc(-c3cnsc3)cc2)[nH]1            0.42
2  CCC(C)(C)Cc1cnc(CCc2ccc(-n3cncn3)cc2)[nH]1             0.4
3  c1ccc(-c2ccc(CCc3nc(CC4CCCC4)c[nH]3)cc2)nc1            0.77

---

# systemName: Bombesin receptor subtype-3 (Homo sapiens)
# Sequence (P32247 whole entry, the tested form may be a part): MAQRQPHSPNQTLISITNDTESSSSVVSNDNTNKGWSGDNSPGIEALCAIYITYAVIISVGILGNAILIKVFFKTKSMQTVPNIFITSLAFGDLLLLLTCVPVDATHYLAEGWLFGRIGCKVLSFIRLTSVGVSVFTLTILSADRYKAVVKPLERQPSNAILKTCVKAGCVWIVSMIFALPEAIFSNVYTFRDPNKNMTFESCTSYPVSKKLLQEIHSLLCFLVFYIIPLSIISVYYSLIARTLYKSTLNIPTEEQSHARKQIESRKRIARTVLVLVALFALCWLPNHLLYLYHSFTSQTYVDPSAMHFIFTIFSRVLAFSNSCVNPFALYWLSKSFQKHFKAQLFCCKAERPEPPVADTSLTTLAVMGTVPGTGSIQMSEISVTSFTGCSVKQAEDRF
# procedureSummary: Agonist activity at human BRS-3 expressed in HEK293 cells coexpressing AEQ over 10 mins by aequorin bioluminescence assay relative to D-Tyr6-betaAla11-Phe13-Nle14-bombesin
# Assay type: functional, cell-based
Listing of recorded Emax by entry.
endpoint: Emax (%)

>>> df
                             chemicalstring  endpoint  recordednumber
0  CCC(C)(C)Cc1c[nH]c(CCc2ccc(-c3ccns3)cc2)n1      Emax             102
1  CCC(C)(C)Cc1c[nH]c(CCc2ccc(-c3cccc(N)n3)cc2)n1      Emax              97
2  CCC(C)(C)Cc1c[nH]c(CCc2ccc(-c3cnccn3)cc2)n1      Emax             100
3  CCC(C)(C)Cc1cnc(CCc2ccc(-c3cccnc3C(=O)O)cc2)[nH]1      Emax              95
4  CCC(C)(C)Cc1c[nH]c(CCc2ccc(-c3ccccc3C(=O)O)cc2)n1      Emax             101
5  CCC(C)(C)Cc1cnc(CCc2ccc(-c3csnn3)cc2)[nH]1      Emax             104
6  CCC(C)(C)Cc1cnc(CCc2ccc(N3CCCCC3)cc2)[nH]1      Emax             108
7  CCC(C)(C)Cc1c[nH]c(CCc2ccc(-c3cccc(C)n3)cc2)n1      Emax             102
8  CCC(C)(C)Cc1cnc(CCc2ccc(-c3cnsc3)cc2)[nH]1      Emax             100
9  CCC(C)(C)Cc1c[nH]c(CCc2ccc(-c3cccc(C(=O)O)n3)cc2)n1      Emax              15
